target: T1, Recombinant human IGFBP3 (human, UniProt P17936 28-291); experiment: Octet BLI; mAb captured via Fc on anti-mouse/anti-human IgG Fc biosensor, human IGFBP3 at 150 nM
T1 construct: also called rhIGFBP3; hIGFBP3
T1 sequence (P17936 28-291 limits assumed): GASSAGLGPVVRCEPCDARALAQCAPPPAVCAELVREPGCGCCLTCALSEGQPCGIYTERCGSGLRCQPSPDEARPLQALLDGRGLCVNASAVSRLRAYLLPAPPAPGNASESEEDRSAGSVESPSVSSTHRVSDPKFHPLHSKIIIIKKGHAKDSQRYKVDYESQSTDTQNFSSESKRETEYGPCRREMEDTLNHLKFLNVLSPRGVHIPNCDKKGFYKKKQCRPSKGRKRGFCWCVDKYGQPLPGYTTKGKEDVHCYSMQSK
Readings of Kd for the listed binders
outcome_measure: Kd (nM)

>>> observed_measurement("E01 (antibody, V domains shown, From Trianni Mouse hybridomas: chimeric mAb with human VH and VK and mouse constant domains; also called anti-IGFBP3 mAb E01) VH: QVQLVESGGGVVQPGRSLRLSCAASGFTFSSYGMHWVRQAPGKGLEWVAVISYDGSNKNYVDSVKGRFTISRDNSKNTLYLQMNSLRAEDTAVYYCARGGEYFYYYGLDVWGQGTTVTVSS VL: EIVMTQSPATLSLSPGERATLSCRASQSVSSSSLSWYQQKPGQAPRLLIYGASTRATGIPARFSGSGSGTDFTLTISSLQPEDFAVYYCQQDYNLPLTFGGGTKVEIK")
1.2
>>> observed_measurement("E08 (antibody, V domains shown, From Trianni Mouse hybridomas: chimeric mAb with human VH and VK and mouse constant domains; also called anti-IGFBP3 mAb E08) VH: QVQLVQSGAEVKKPGASVKVSCKASGYTFSNYGISWVRQAPGQGLEWMGWINTYNGNTNYAQKLQGRVTMTTDTSTSTAYMALRGLRSDDTAVYYCARDRGYSSSPYYYYYGMDVWGQGTTVTVSS VL: EIVMTQSPATLSLSPGERATLSCRASQSVSSSSLSWYQQKPGQAPRLLIYGASTRATGIPARFSGSGSGTDFTLTISSLQPEDFAVYYCQQDYNLPLTFGGGTKVEIK")
0.61
>>> observed_measurement("E20 (antibody, V domains shown, From Trianni Mouse hybridomas: chimeric mAb with human VH and VK and mouse constant domains; also called anti-IGFBP3 mAb E20) VH: QVQLVQSGAEVKKPGASVKVSCKASGYTFSNYGISWVRQAPGQGLEWMGWINTYNGNTNYAQKLQGRVTMTTDTSTSTAYMALRGLRSDDTAVYYCARDRGYSSSPYYYYYGMDVWGQGTTVTVSS VL: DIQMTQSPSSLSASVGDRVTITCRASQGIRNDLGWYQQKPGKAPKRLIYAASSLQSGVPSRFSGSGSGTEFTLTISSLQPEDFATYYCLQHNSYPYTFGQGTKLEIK")
0.85
